All values here come from paper PMC2706954.

- Test system: E. faecalis ATCC29212
- Type: cell-based
- STUDY CONDITIONS: ATCC29212
ASSAY READOUT: MIC E. faecalis ATCC29212 (µg/mL)
Give bare numbers, in µg/mL.

stdin: # return recorded MIC E. faecalis ATCC29212 for input C=C1NC(=O)C2NC(=O)[C@H](CC(C)C)NC(=O)C(NC(=O)[C@@H]3CSC(C)C(NC(=O)[C@H](Cc4ccccc4)NC(=O)C4NC(=O)[C@@H](N)CSC4C)C(=O)N[C@@H](CC(C)C)C(=O)N4CCC[C@H]4C(=O)NCC(=O)NCC(=O)NCC(=O)NCC(=O)N[C@@H](CCSC)C(=O)N3)C(C)SC[C@H](NC(=O)[C@H](CCC(=O)O)NC1=O)C(=O)N[C@@H]([C@@H](C)CC)C(=O)NC=CSC2C (some centres unmarked) [V11M]
stdout: 64
